molecular target: human recombinant AT2 receptor (Homo sapiens, UniProt P50052); experiment: Affinity for AT2 receptor (receptor binding assay); details: membrane fraction from HeLa cells expressing human recombinant AT2 receptor; 125I-[Sar1, Ile8]-Ang II 0.1 nmol/L
Sequence (P50052 whole entry): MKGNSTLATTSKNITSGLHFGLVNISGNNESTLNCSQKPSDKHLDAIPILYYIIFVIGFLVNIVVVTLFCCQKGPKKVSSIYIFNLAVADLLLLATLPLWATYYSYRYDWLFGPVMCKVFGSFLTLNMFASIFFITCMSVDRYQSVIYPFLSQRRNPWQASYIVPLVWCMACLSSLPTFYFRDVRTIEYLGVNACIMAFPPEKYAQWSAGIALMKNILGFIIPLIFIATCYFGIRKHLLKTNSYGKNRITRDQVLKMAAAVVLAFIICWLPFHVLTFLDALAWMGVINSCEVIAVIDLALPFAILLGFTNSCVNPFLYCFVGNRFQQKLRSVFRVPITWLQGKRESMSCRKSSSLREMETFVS
Excerpt: […]
pKi: −log10 of the molar value.
measure name: pKi

compound: CC(C)CC(C(=O)NS(=O)(=O)/C=C/c1ccccc1)C(=O)N(c1ccc(F)cc1)C(C)C (centres unmarked) [Example 491]
readout value: 8.04

compound: CCN(CC)C(=O)[C@H](Cc1ccc(NC(=O)c2ccccc2N)cc1)C(=O)NS(=O)(=O)c1ccc2ccccc2c1 [Example 104]
readout value: 8.48

compound: C=CCC(C(=O)NS(=O)(=O)/C=C/c1ccccc1)C(=O)N(CC)c1cccc(C(F)(F)F)c1 (centres unmarked) [Example 475]
readout value: 7.89

I. CCN(CC)C(=O)[C@H](Cc1ccc(NC(=O)c2cc(C)ccc2N)cc1)C(=O)NS(=O)(=O)c1ccc2ccccc2c1 [Example 108]
II. CCN(CC)C(=O)[C@H](Cc1ccc(NC(=O)c2cc(Cl)ccc2N)cc1)C(=O)NS(=O)(=O)c1ccc2ccccc2c1 [Example 105]
Which entry has a larger number for pKi, I or II ? Indicate which entry you chose by stating its label.
II
